System Under Test: ROCK2 (Homo sapiens, UniProt O75116)
Sequence (O75116 whole entry, species assumed): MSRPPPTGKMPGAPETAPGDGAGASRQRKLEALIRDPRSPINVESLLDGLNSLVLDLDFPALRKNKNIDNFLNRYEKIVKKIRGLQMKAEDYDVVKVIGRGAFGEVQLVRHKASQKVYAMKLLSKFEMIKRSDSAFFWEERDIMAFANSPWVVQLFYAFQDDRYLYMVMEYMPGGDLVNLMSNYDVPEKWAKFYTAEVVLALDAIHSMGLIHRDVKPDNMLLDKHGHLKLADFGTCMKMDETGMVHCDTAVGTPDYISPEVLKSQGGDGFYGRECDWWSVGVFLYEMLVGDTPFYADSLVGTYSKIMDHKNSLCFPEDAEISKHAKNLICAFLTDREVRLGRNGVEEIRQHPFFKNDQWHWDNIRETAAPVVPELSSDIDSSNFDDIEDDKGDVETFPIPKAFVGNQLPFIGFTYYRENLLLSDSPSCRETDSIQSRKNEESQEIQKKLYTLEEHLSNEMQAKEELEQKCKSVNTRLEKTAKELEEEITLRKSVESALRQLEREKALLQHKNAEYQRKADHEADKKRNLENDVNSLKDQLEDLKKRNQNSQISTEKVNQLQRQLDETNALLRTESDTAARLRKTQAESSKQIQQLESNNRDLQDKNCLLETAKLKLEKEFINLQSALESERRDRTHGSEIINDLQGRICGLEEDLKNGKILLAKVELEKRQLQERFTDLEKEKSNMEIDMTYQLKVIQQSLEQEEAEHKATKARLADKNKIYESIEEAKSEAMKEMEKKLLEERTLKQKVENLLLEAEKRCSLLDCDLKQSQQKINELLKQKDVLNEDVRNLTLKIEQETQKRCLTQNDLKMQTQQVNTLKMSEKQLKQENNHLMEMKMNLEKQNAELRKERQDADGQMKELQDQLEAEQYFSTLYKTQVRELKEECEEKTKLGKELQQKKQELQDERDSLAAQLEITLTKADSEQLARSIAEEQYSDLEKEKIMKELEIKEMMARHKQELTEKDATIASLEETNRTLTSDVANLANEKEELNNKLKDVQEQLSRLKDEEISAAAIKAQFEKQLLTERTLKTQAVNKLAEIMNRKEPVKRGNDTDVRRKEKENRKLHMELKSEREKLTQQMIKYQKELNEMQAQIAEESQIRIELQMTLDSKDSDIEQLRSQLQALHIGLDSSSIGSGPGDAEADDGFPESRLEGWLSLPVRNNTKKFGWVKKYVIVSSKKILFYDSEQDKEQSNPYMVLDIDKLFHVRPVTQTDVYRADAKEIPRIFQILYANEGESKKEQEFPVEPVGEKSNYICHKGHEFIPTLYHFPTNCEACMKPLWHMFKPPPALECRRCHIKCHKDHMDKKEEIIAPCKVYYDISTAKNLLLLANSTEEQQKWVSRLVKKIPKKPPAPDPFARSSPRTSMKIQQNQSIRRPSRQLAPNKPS
Assay Details: ROCK2 kinase inhibition assay (LABCHIP 3000 Reader, FITC peptide substrate)
pIC50: −log10 of the molar value.
# reported pIC50; entries follow

Example molecules with recorded pIC50:
NC(=O)c1cccnc1O[C@H]1CC2(C[C@H](NC(=O)c3cccc(-n4cccn4)c3)C2)C1 (some centres unmarked) [Example 134]; 6.60 to 7.30
CC(C)(O)COc1ccc2c(C(=O)NC3CC4(C3)CC(Oc3cc(-c5cccc(C(=O)O)c5)ccc3C(N)=O)C4)cnn2c1 (centres unmarked) [Example 296]; 7.30 to 8.30
NC(=O)c1cccnc1O[C@H]1CC2(C[C@H](NC(=O)c3cnc4cnccn34)C2)C1 (some centres unmarked) [Example 345]; 5.60 to 6.60
N#Cc1ccc(F)c(C(=O)N[C@H]2CC3(C2)C[C@H](Oc2ncccc2C(N)=O)C3)c1 (some centres unmarked) [Example 155]; 5.60 to 6.60

Would you kindly look at the next entry?
In: Look at this molecule and give its reported pIC50. CN1CCN(CCCc2ccc(C(N)=O)c(OC3CC4(CC(NC(=O)c5cnn6cc(OCC(C)(C)O)ccc56)C4)C3)c2)CC1 (centres unmarked) [Example 266]
Out: 6.60 to 7.30

---

System Under Test: ROCK2 (Homo sapiens)
Assay Details: ROCK2 kinase inhibition assay (LABCHIP 3000 Reader, FITC peptide substrate)
# reported IC50; entries follow

Example molecules with recorded IC50:
CC(C)(O)Cn1nc(C(=O)N[C@H]2CC3(C2)C[C@H](Oc2ncccc2C(N)=O)C3)c2ccc(OC(F)(F)F)cc21 (stereo partly shown) [Example 98]; 5 to 50 nM
NC(=O)c1cccnc1O[C@H]1CC2(C[C@H](NC(=O)c3cn4ccccc4n3)C2)C1 (stereo partly shown) [Example 75]; 250 to 2500 nM
Cn1cc(-c2cc(C#N)cc(C(=O)N[C@H]3CC4(C3)C[C@H](Oc3ncccc3C(N)=O)C4)c2)c(C(F)(F)F)n1 (stereo partly shown) [Example 184]; 5 to 50 nM

In: Look at this molecule and give its reported IC50. CC(C)(O)COc1ccc2c(C(=O)NC3CC4(C3)CC(Oc3ncccc3C(N)=O)C4)cnn2c1 (stereo not shown) [Example 6]
Out: < 5 nM

---

System Under Test: ROCK2 (Homo sapiens, UniProt O75116)
Assay Details: ROCK2 kinase inhibition assay (LABCHIP 3000 Reader, FITC peptide substrate);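 also: rho kinase reaction read by separating phosphorylated from unphosphorylated peptide on chip, with inhibition of kinase activity computed per concentration across a dose-response series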
Measured Parameter: IC50

Example compounds with recorded IC50:
COc1ccc2c(C(=O)N[C@H]3CC4(C3)C[C@H](Oc3ncccc3C(N)=O)C4)cnn2c1CCC(F)(F)F (stereo partly shown); 5 to 50 nM
NC(=O)c1ccccc1O[C@H]1CC2(C[C@H](NC(=O)N3Cc4ccccc4C3)C2)C1 (stereo partly shown); 50 to 250 nM
CC(C)(O)COc1ccc2c(C(=O)NC3CC4(C3)CC(Oc3cc(-c5ccccc5C(F)(F)F)ccc3C(N)=O)C4)cnn2c1 (stereo not shown); 50 to 250 nM
[H][C@]1(Oc2ncccc2C(N)=O)C[C@@]2(C[C@H](NC(=O)c3cnn4c(C5CC5)c(OCC(C)(C)F)ccc34)C2)C1 (stereo partly shown); < 5 nM
NC(=O)c1ccccc1O[C@H]1CC2(C[C@H](NC(=O)c3cnn4cc(OCCC(F)(F)F)ccc34)C2)C1 (stereo partly shown); < 5 nM
CC(C)(O)COc1ccc2c(C(=O)NC3CC4(C3)CC(Oc3cc(-c5cc(C(=O)O)cc(C(=O)O)c5)ccc3C(N)=O)C4)cnn2c1 (stereo not shown); 5 to 50 nM

Would you kindly look at the next entry?
In: Look at this compound and give its reported IC50. NC(=O)c1cccnc1O[C@H]1CC2(C[C@H](NC(=O)c3cnc4cc(N5CC[C@@H](O)C5)ccn34)C2)C1 (stereo partly shown)
Out: 5 to 50 nM
